molecular target: protein farnesyltransferase (Rattus norvegicus, UniProt Q02293+Q04631); construct: Rat brain protein farnesyltransferase activity is measured; from tissue; host or cells: rat brain; purified according to Reiss et al., Cell 62:81-88 (1990), steps one through three; assay: in vitro inhibition of protein farnesyltransferase (scintillation proximity assay, biotin-K Ras B fragment); assay type: biochemical; conditions: at 1 × 10^-8 M; read-out: % inhibition of farnesyltransferase
Where a name gives a salt, the structure may show the parent alone.
value-kind: inhibition at 0.01 µM (%)

INSERT INTO assay_data (compound, study_target, value_kind, units_of_measure, data_value) VALUES
  ('CSCC[C@H](NC(=O)c1ccc(CN[C@H](CSC2CCCCC2)CC2CCCCC2)cc1-c1ccccc1C)C(=O)O [Example 766, lithium salt]', 'protein farnesyltransferase (Rattus norvegicus, UniProt Q02293+Q04631)', 'inhibition at 0.01 µM', '%', 95),
  ('CCSC[C@H](CC(C)C)NCc1ccc(C(=O)N[C@@H](CCSC)C(=O)O)c(-c2ccccc2C)c1', 'protein farnesyltransferase (Rattus norvegicus, UniProt Q02293+Q04631)', 'inhibition at 0.01 µM', '%', 86),
  ('CSCC[C@H](NC(=O)c1ccc(CN(Cc2ccccc2)c2cnccn2)cc1-c1ccccc1C)C(=O)O [Example 517, lithium salt]', 'protein farnesyltransferase (Rattus norvegicus, UniProt Q02293+Q04631)', 'inhibition at 0.01 µM', '%', 92),
  ('CSCC[C@H](NC(=O)c1ccc(CN(CCc2ccccc2)c2cncnc2)cc1-c1ccccc1C)C(=O)O [Example 518, lithium salt]', 'protein farnesyltransferase (Rattus norvegicus, UniProt Q02293+Q04631)', 'inhibition at 0.01 µM', '%', 90),
  ('CSCC[C@H](NC(=O)c1ccc(CN(Cc2ccc3c(c2)OCO3)c2cnccn2)cc1-c1ccccc1C)C(=O)O [Example 838, lithium salt]', 'protein farnesyltransferase (Rattus norvegicus, UniProt Q02293+Q04631)', 'inhibition at 0.01 µM', '%', 92),
  ('C=C[C@H](CC1CCCCC1)NCc1ccc(C(=O)N[C@@H](CCSC)C(=O)O)c(-c2ccccc2C)c1 [Example 619, Lithium Salt]', 'protein farnesyltransferase (Rattus norvegicus, UniProt Q02293+Q04631)', 'inhibition at 0.01 µM', '%', 95),
  ('CSCC[C@H](NC(=O)c1ccc(CN(Cc2ccccc2)c2ccc(C(F)(F)F)cc2)cc1-c1ccccc1C)C(=O)O [Example 853, lithium salt]', 'protein farnesyltransferase (Rattus norvegicus, UniProt Q02293+Q04631)', 'inhibition at 0.01 µM', '%', 85);

---

target: protein farnesyltransferase (Rattus norvegicus, UniProt Q02293+Q04631); construct: Rat brain protein farnesyltransferase activity is measured; from tissue; host or cells: rat brain; purified according to Reiss et al., Cell 62:81-88 (1990), steps one through three; assay: in vitro inhibition of protein farnesyltransferase (scintillation proximity assay, biotin-K Ras B fragment); format: biochemical; settings: at 1 × 10^-6 M
value-kind: % inhibition of farnesyltransferase (%)

Observe how each entry below is paired with its result.
INSERT INTO assay_data (compound, study_target, data_value) VALUES
  ('CSCC[C@H](NC(=O)c1ccc(S(=O)(=O)NCCCn2ccnc2)cc1-c1ccccc1C)C(=O)O', 'protein farnesyltransferase (Rattus norvegicus, UniProt Q02293+Q04631)', 83),
  ('CSCC[C@H](NC(=O)c1ccc(CN(C2CC2)C(C)(C)CC2CCCCC2)cc1-c1ccccc1C)C(=O)O', 'protein farnesyltransferase (Rattus norvegicus, UniProt Q02293+Q04631)', 63),
  ('CSCC[C@H](NC(=O)c1ccc(CN(C(C)C)C(C)(C)Cc2ccccc2)cc1-c1ccccc1C)C(=O)O', 'protein farnesyltransferase (Rattus norvegicus, UniProt Q02293+Q04631)', 54),
  ('CSCC[C@H](NC(=O)c1ccc(COCc2ccccc2)cc1-c1ccccc1C)C(=O)NS(=O)(=O)c1ccc(C)cc1', 'protein farnesyltransferase (Rattus norvegicus, UniProt Q02293+Q04631)', 99),
  ('CSCC[C@H](NC(=O)c1ccc(-c2cccc(-c3ccccc3)c2)cc1-c1ccccc1C)C(=O)[O-].[Li+]', 'protein farnesyltransferase (Rattus norvegicus, UniProt Q02293+Q04631)', 70);

1. Cc1ccccc1-c1cc(CN(C2CC2)C2(CC3CCCCC3)CCC2)ccc1C(=O)N[C@@H](CCS(C)(=O)=O)C(=O)O
2. CSCC[C@H](NC(=O)c1ccc(COCC2CCOC2)cc1-c1ccccc1)C(=O)O (stereo partly shown)
Of 1 and 2 , which shows the smaller % inhibition of farnesyltransferase value? To answer, give the label that identifies your chosen option.
2

---

biological target: protein farnesyltransferase (Rattus norvegicus, UniProt Q02293+Q04631); construct: Rat brain protein farnesyltransferase activity is measured; from tissue; host or cells: rat brain; purified according to Reiss et al., Cell 62:81-88 (1990), steps one through three; experiment: in vitro inhibition of protein farnesyltransferase (scintillation proximity assay, biotin-K Ras B fragment); format: biochemical; conditions: at 1 × 10^-7 M
value-kind: % inhibition of farnesyltransferase (%)

INSERT INTO assay_data (compound, data_value) VALUES
  ('CSCC[C@H](NC(=O)c1ccc(COCc2ccc(-c3ccc(Cl)cc3)o2)cc1-c1ccccc1C)C(=O)NS(C)(=O)=O', 78),
  ('CSCC[C@H](NC(=O)c1ccc(C=Cc2cncs2)cc1-c1ccccc1C)C(=O)[O-].[Li+]', 96),
  ('CSCC[C@H](NC(=O)c1ccc(COc2ccc3ccccc3c2)cc1-c1ccccc1C)C(=O)O', 72),
  ('CCCC(CCC)NOCc1ccc(C(=O)N[C@@H](CCSC)C(=O)O)c(-c2ccccc2C)c1', 81),
  ('COc1ccc(COCc2ccc(C(=O)N[C@@H](CCSC)C(=O)[O-])c(-c3ccccc3C)c2)cc1.[Li+]', 72),
  ('CSCC[C@H](NC(=O)c1ccc(CSc2ccc(F)cc2)cc1-c1ccccc1C)C(=O)O', 94),
  ('CSCC[C@H](NC(=O)c1ccc(COCc2ccc(-c3ccccc3C(F)(F)F)o2)cc1-c1ccccc1C)C(=O)[O-].[Li+]', 90),
  ('CSCC[C@H](NC(=O)c1ccc(/C=C/c2ccc(Oc3ccccc3[N+](=O)[O-])cc2)cc1-c1ccccc1C)C(=O)O', 97),
  ('CSCC[C@H](NC(=O)c1ccc(CCc2ccc(Oc3ccccc3)cc2)cc1-c1ccccc1C)C(=O)[O-].[Li+]', 91),
  ('CSCC[C@H](NC(=O)c1ccc(COC(Cc2ccccc2)c2ccco2)cc1-c1ccccc1C)C(=O)[O-].[Li+] (stereo partly shown)', 84),
  ('COc1ccc(-c2ccc(COCc3ccc(C(=O)N[C@@H](CCSC)C(=O)[O-])c(-c4ccccc4C)c3)o2)cc1.[Li+]', 91),
  ('CSCC[C@H](NC(=O)c1ccc(COCc2ccc(Br)o2)cc1-c1ccccc1C)C(=O)[O-].[Li+]', 93),
  ('CSCC[C@H](NC(=O)c1ccc(CSc2ccc(C)cc2C)cc1-c1ccccc1C)C(=O)O', 89),
  ('CSCC[C@H](NC(=O)c1ccc(COCc2cnc(C(C)(C)C)s2)cc1-c1ccccc1C)C(=O)[O-].[Li+]', 92),
  ('CSCC[C@H](NC(=O)c1ccc(COCCc2ccc(Cl)cc2)cc1-c1ccccc1C)C(=O)[O-].[Li+]', 95),
  ('CSCC[C@H](NC(=O)c1ccc(COCc2ccc(-c3ccc(SC)cc3)o2)cc1-c1ccccc1C)C(=O)[O-].[Li+]', 91),
  ('CSCC[C@H](NC(=O)c1ccc(COCc2ccc(-c3ccc(C=O)cc3)o2)cc1-c1ccccc1C)C(=O)[O-].[Li+]', 92),
  ('CSCC[C@H](NC(=O)c1ccc(COCc2ccccc2)cc1-c1ccccc1C)C(=O)[O-].[Li+]', 88),
  ('CSCC[C@H](NC(=O)c1ccc(C#Cc2cncnc2)cc1-c1ccccc1C)C(=O)[O-].[Li+]', 51),
  ('CSCC[C@@H](C(=O)[O-])N(C)C(=O)c1ccc(COCCCC2CCCCC2)cc1-c1ccccc1C.[Li+]', 75),
  ('CSCC[C@H](NC(=O)c1ccc(CSc2nc3ccccc3[nH]2)cc1-c1ccccc1C)C(=O)O', 84),
  ('CSCC[C@H](NC(=O)c1ccc(COCc2cncs2)cc1-c1ccccc1C)C(=O)[O-].[Li+]', 89),
  ('CSCC[C@H](NC(=O)c1ccc(COCCc2ccc3ccccc3c2)cc1-c1ccccc1C)C(=O)[O-].[Li+]', 86),
  ('CSCC[C@H](NC(=O)c1ccc(CN2CCCC(OCC3CCCCC3)C2)cc1-c1ccccc1C)C(=O)O (stereo partly shown)', 84),
  ('CSCC[C@H](NC(=O)c1ccc(CSc2ncnc3[nH]ncc23)cc1-c1ccccc1C)C(=O)O', 84),
  ('CSCC[C@H](NC(=O)c1ccc(COCc2ccc(-c3ccc(C(F)(F)F)cc3)o2)cc1-c1ccccc1C)C(=O)[O-].[Li+]', 94),
  ('CSCC[C@H](NC(=O)c1ccc(CCc2ccc(Oc3ccccc3)nn2)cc1-c1ccccc1C)C(=O)O', 85),
  ('CSCC[C@H](NC(=O)c1ccc(COCc2cccc(N(C)C)c2)cc1-c1ccccc1C)C(=O)O', 90);
